Catalogue of compounds with associated No. A4922 Emerged, Light soil
System: wild-type soybean line A4922
Test: Field trial of seed coating application rates, wild-type soybean
Settings: 1 μg compound per seed
# unit: c-g | format: bare number

[[record]]
compound = "C=C1C[C@]23C[C@@]1(O)CC[C@H]2[C@@]12CC=C[C@@](C)(C(=O)O1)[C@H]2[C@@H]3C(=O)O [GA5]"
readouttype = "No. A4922 Emerged, Light soil"
experimentalresult = 47.3


Next, consider the following compound.
# No. A4922 Emerged, Light soil of C=C1C[C@]23C[C@H]1CC[C@H]2[C@@]12CCC[C@@](C)(C(=O)O1)[C@H]2[C@@H]3C(=O)O [GA9] = 46.7
